# RUN DESCRIPTION: PK of compound of Formula (Ia) after single subcutaneous dose of solution formulations in Wistar Han rats
# Format: in vivo
# CONDITION PARAMETERS: male, Wistar Han, rat, plasma, sc, 50 mg/kg, Wistar Han rats, SC 50 mg/kg, 500 mg/mL solution X (5.00% ethanol, 1.91% poloxamer 188), 48.0 h, Mean n = 3
# Method: Formulations containing the compound of Formula (Ia), or a pharmaceutically acceptable salt thereof, were prepared as solutions and optionally administered subcutaneously or intramuscularly to rats, rabbits, and/or dogs. A solution of about 400 mg/mL of the compound of Formula (Ia) having 19.14 w/w % water, 40.66 w/w % PEG 300, 35.20 w/w % of a sodium salt of a compound of Formula (Ia), and 5.00% ethanol was prepared. […]

STRUCTURE STRING | concentration at 48 h
CC(C)(C#Cc1ccc(-c2ccc(Cl)c3c(NS(C)(=O)=O)nn(CC(F)(F)F)c23)c([C@H](Cc2cc(F)cc(F)c2)NC(=O)Cn2nc(C(F)(F)F)c3c2C(F)(F)[C@@H]2C[C@H]32)n1)S(C)(=O)=O | 209 nM

====

# RUN DESCRIPTION: PK of compound of Formula (Ia) after single subcutaneous dose of solution formulations in Wistar Han rats
# Format: in vivo
# CONDITION PARAMETERS: male, Wistar Han, rat, plasma, sc, 50 mg/kg, mean ± SD, n = 5 rats; SC 50 mg/kg; solution U, 500 mg/mL; read-out: AUC0-3024 h

MOLECULE | AUC(0-t) / µM·h
CC(C)(C#Cc1ccc(-c2ccc(Cl)c3c(NS(C)(=O)=O)nn(CC(F)(F)F)c23)c([C@H](Cc2cc(F)cc(F)c2)NC(=O)Cn2nc(C(F)(F)F)c3c2C(F)(F)[C@@H]2C[C@H]32)n1)S(C)(=O)=O [compound of Formula (Ia)] | 669

====

# RUN DESCRIPTION: PK of compound of Formula (Ia) after single subcutaneous dose of solution formulations in Wistar Han rats
# Type: in vivo
# CONDITION PARAMETERS: male, Wistar Han, rat, plasma, sc, 50 mg/kg, mean ± SD, n = 3 rats; SC 50 mg/kg; solution S, 500 mg/mL; read-out: AUC0-2352 h

STRUCTURE STRING | AUC(0-t)
CC(C)(C#Cc1ccc(-c2ccc(Cl)c3c(NS(C)(=O)=O)nn(CC(F)(F)F)c23)c([C@H](Cc2cc(F)cc(F)c2)NC(=O)Cn2nc(C(F)(F)F)c3c2C(F)(F)[C@@H]2C[C@H]32)n1)S(C)(=O)=O | 554 µM·h

====

# RUN DESCRIPTION: PK of compound of Formula (Ia) after single subcutaneous dose of solution formulations in Wistar Han rats
# Assay type: in vivo
# CONDITION PARAMETERS: male, Wistar Han, rat, plasma, sc, 50 mg/kg, male Wistar Han rats, single SC 50 mg/kg, 400 mg/mL solution Z (3.13% poloxamer 188), mean ± SD, n = 4; read-out: AUC0-672 h
VALUE TYPE: AUC(0-t) (µM·h)

STRUCTURE STRING | ENDPOINT RESULT
CC(C)(C#Cc1ccc(-c2ccc(Cl)c3c(NS(C)(=O)=O)nn(CC(F)(F)F)c23)c([C@H](Cc2cc(F)cc(F)c2)NC(=O)Cn2nc(C(F)(F)F)c3c2C(F)(F)[C@@H]2C[C@H]32)n1)S(C)(=O)=O | 106

====

# RUN DESCRIPTION: PK of compound of Formula (Ia) after single subcutaneous dose of solution formulations in Wistar Han rats
# Assay type: in vivo
# CONDITION PARAMETERS: male, Wistar Han, rat, plasma, sc, 50 mg/kg, Wistar Han rats, SC 50 mg/kg, 400 mg/mL solution W (5.00% ethanol, 1.57% poloxamer 188), 4704 h, Mean n = 3
VALUE TYPE: concentration at 4704 h (nM)

MOLECULE | VALUE TYPE | UNIT OF MEASURE | ENDPOINT RESULT
CC(C)(C#Cc1ccc(-c2ccc(Cl)c3c(NS(C)(=O)=O)nn(CC(F)(F)F)c23)c([C@H](Cc2cc(F)cc(F)c2)NC(=O)Cn2nc(C(F)(F)F)c3c2C(F)(F)[C@@H]2C[C@H]32)n1)S(C)(=O)=O [compound of Formula (Ia)] | concentration at 4704 h | nM | 57.9

====

# RUN DESCRIPTION: PK of compound of Formula (Ia) after single subcutaneous dose of solution formulations in beagle dogs
# Assay type: in vivo
# CONDITION PARAMETERS: male, beagle, dog, plasma, sc, 12 mg/kg, beagle dogs, SC 12 mg/kg, 400 mg/mL solution AA (6.25% poloxamer 188), 2688 h, Mean n = 3
VALUE TYPE: concentration at 2688 h (nM)

STRUCTURE STRING | ENDPOINT RESULT
CC(C)(C#Cc1ccc(-c2ccc(Cl)c3c(NS(C)(=O)=O)nn(CC(F)(F)F)c23)c([C@H](Cc2cc(F)cc(F)c2)NC(=O)Cn2nc(C(F)(F)F)c3c2C(F)(F)[C@@H]2C[C@H]32)n1)S(C)(=O)=O | 5.47

====

# RUN DESCRIPTION: PK of compound of Formula (Ia) after single subcutaneous dose of solution formulations in Wistar Han rats
# Format: in vivo
# CONDITION PARAMETERS: male, Wistar Han, rat, plasma, sc, 50 mg/kg, Wistar Han rats, SC 50 mg/kg, 500 mg/mL solution X (5.00% ethanol, 1.91% poloxamer 188), 840 h, Mean n = 3

STRUCTURE STRING | concentration at 840 h / nM
CC(C)(C#Cc1ccc(-c2ccc(Cl)c3c(NS(C)(=O)=O)nn(CC(F)(F)F)c23)c([C@H](Cc2cc(F)cc(F)c2)NC(=O)Cn2nc(C(F)(F)F)c3c2C(F)(F)[C@@H]2C[C@H]32)n1)S(C)(=O)=O | 294

====

# RUN DESCRIPTION: PK of compound of Formula (Ia) after single subcutaneous dose of solution formulations in Wistar Han rats
# Type: in vivo
# CONDITION PARAMETERS: male, Wistar Han, rat, plasma, sc, 50 mg/kg, Wistar Han rats, SC 50 mg/kg, 500 mg/mL solution X (5.00% ethanol, 1.91% poloxamer 188), 672 h, Mean n = 3
VALUE TYPE: concentration at 672 h (nM)

STRUCTURE STRING | ENDPOINT RESULT
CC(C)(C#Cc1ccc(-c2ccc(Cl)c3c(NS(C)(=O)=O)nn(CC(F)(F)F)c23)c([C@H](Cc2cc(F)cc(F)c2)NC(=O)Cn2nc(C(F)(F)F)c3c2C(F)(F)[C@@H]2C[C@H]32)n1)S(C)(=O)=O | 270

====

# RUN DESCRIPTION: PK of compound of Formula (Ia) after single subcutaneous dose of solution formulations in Wistar Han rats
# Type: in vivo
# CONDITION PARAMETERS: male, Wistar Han, rat, plasma, sc, 50 mg/kg, 2352 h; individual rats; SC 50 mg/kg; solution R, 400 mg/mL
# Method: Formulations containing the compound of Formula (Ia), or a pharmaceutically acceptable salt thereof, were prepared as solutions and optionally administered subcutaneously or intramuscularly to rats, rabbits, and/or dogs. A solution of about 400 mg/mL of the compound of Formula (Ia) having 19.14 w/w % water, 40.66 w/w % PEG 300, 35.20 w/w % of a sodium salt of a compound of Formula (Ia), and 5.00% ethanol was prepared. […]
VALUE TYPE: concentration at 2352 h (µM)

STRUCTURE STRING | VALUE TYPE | UNIT OF MEASURE | ENDPOINT RESULT
CC(C)(C#Cc1ccc(-c2ccc(Cl)c3c(NS(C)(=O)=O)nn(CC(F)(F)F)c23)c([C@H](Cc2cc(F)cc(F)c2)NC(=O)Cn2nc(C(F)(F)F)c3c2C(F)(F)[C@@H]2C[C@H]32)n1)S(C)(=O)=O | concentration at 2352 h | µM | 0.183

====

# RUN DESCRIPTION: PK of compound of Formula (Ia) after single subcutaneous dose of solution formulations in Wistar Han rats
# Format: in vivo
# CONDITION PARAMETERS: male, Wistar Han, rat, plasma, sc, 50 mg/kg, Wistar Han rats, SC 50 mg/kg, 500 mg/mL solution X (5.00% ethanol, 1.91% poloxamer 188), 4704 h, animals #1-#3
VALUE TYPE: concentration at 4704 h

STRUCTURE STRING | ENDPOINT RESULT
CC(C)(C#Cc1ccc(-c2ccc(Cl)c3c(NS(C)(=O)=O)nn(CC(F)(F)F)c23)c([C@H](Cc2cc(F)cc(F)c2)NC(=O)Cn2nc(C(F)(F)F)c3c2C(F)(F)[C@@H]2C[C@H]32)n1)S(C)(=O)=O | 79.4 nM
